- Test system: FLU A (PR/8/34)
- PROCEDURE_SUMMARY: Flu A Neuraminidase Antiviral Assay
- Assay type: cell-based
pEC50: −log10 of the molar value.
Think of 6 as a floor: if pEC50 stands on it or above, it is Satisfied; beneath it, Not satisfied.

-- ask Does the molecule CN1C(=O)c2c(O)c(=O)ccn2N2C1CCCC2(C)c1ccccc1Cl (single isomer, unassigned) [Compound 20A] have recorded pEC50 that is 6 or more?
-- reply Satisfied

-- ask hey, is pEC50 for this one >= 6? Cc1ccnc(C2(C)CCCC3N(CC(F)(F)F)C(=O)c4c(O)c(=O)ccn4N32)c1 (single isomer, unassigned) [Compound 50A]
-- reply Not satisfied

-- ask # bool: pEC50 of CN1C(=O)c2c(O)c(=O)ccn2N2C1CCCC21CCc2ccccc21 (single isomer, unassigned) [Compound 21C] >= 6
-- reply Not satisfied

-- ask Does the molecule CC1CC2N(C)C(=O)c3c(O)c(=O)ccn3N2C(C)(c2ccccc2)C1 (single isomer, unassigned) [Compound 43C] have recorded pEC50 that is 6 or more?
-- reply Satisfied

-- ask Could you verify whether the entry CN1C(=O)c2c(O)c(=O)ccn2N2C(c3ccccc3)C(CC3CC3(F)F)CCC12 (single isomer, unassigned) [Compound 114C] shows pEC50 of no less than 6?
-- reply Satisfied

-- ask Determine whether this molecule has pEC50 no lower than 6: CN1C(=O)c2c(O)c(=O)ccn2N2C(c3cccc(F)c3)CCCC12 (single isomer, unassigned) [Compound 10A]
-- reply Not satisfied

* * *

Give measured EC50 for each item. Keep answers brief.
- Tested on: FLU A (PR/8/34)
- PROCEDURE_SUMMARY: Flu A Neuraminidase Antiviral Assay
- Assay type: cell-based
Give the quantity in nM, number only.

-- ask Requested field: EC50. Item: Cc1cccc(F)c1C1C(CC(F)(F)F)CCC2N(C)C(=O)c3c(O)c(=O)ccn3N12 (single isomer, unassigned) [Compound 77A]
-- reply 3.3

-- ask Looking for the measured EC50 of Cc1c(F)cccc1C1C(CC(F)(F)F)CCC2N(C)C(=O)c3c(O)c(=O)ccn3N12 (single isomer, unassigned) [Compound 80A] , can you help?
-- reply 59.6

* * *

Would you kindly list EC50 for each of these compounds?
- System: FLU A (PR/8/34)
- PROCEDURE_SUMMARY: Flu A Neuraminidase Antiviral Assay
- Format: cell-based
Output spec: scalar in µM, unitless text.

-- ask # query: EC50 of entry C=CCC1CCC2N(C)C(=O)c3c(O)c(=O)ccn3N2C1c1ccccc1Cl (centres unmarked) [Compound 64C]
-- reply 0.673

-- ask For the compound shown here, CN1C(=O)c2c(O)c(=O)ccn2N2C1CCCC2(C)c1ncccc1F (single isomer, unassigned) [Compound 27B] , give the reported EC50.
-- reply 0.0171

-- ask Which EC50 reading was recorded for the compound COc1ccccc1C1C(CC(F)(F)F)CCC2N(C)C(=O)c3c(O)c(=O)ccn3N12 (single isomer, unassigned) [Compound 125B] ?
-- reply 0.0025

-- ask Entry under review: CCCC1CCC2N(C)C(=O)c3c(O)c(=O)ccn3N2C1c1ccccc1C (single isomer, unassigned) [Compound 92B] . Reported EC50?
-- reply 0.0033

-- ask Give the measured EC50 of Cc1ccccc1C1N2C(CCC13CC1C(C3)C1(F)F)N(C)C(=O)c1c(O)c(=O)ccn12 (single isomer, unassigned) [Compound 69A] .
-- reply 0.0023

-- ask # EC50 lookup, item CN1C(=O)c2c(O)c(=O)ccn2N2C1CCCC21CCc2ccccc21 (single isomer, unassigned) [Compound 21D]
-- reply 1.55

-- ask What value of measured EC50 is listed for CN1C(=O)c2c(O)c(=O)ccn2N2C1CCCC2(C)c1cccc(OC(F)F)c1 (single isomer, unassigned) [Compound 51B] ?
-- reply 0.0163

-- ask Item under review: CN1C(=O)c2c(O)c(=O)ccn2N2C1CCCC2(C)c1ccccn1 (single isomer, unassigned) [Compound 30B] . Reported EC50?
-- reply 5.3

-- ask # query: EC50 of entry CN1C(=O)c2c(O)c(=O)ccn2N2C1CCC1(CCC(F)(F)C1)C2c1ccccc1 (single isomer, unassigned) [Compound 68D]
-- reply 0.0118

-- ask Endpoint output: EC50 of CC1(c2cc(C(F)(F)F)ccn2)CCCC2N(CC3(C(F)(F)F)CC3)C(=O)c3c(O)c(=O)ccn3N21 (single isomer, unassigned) [Compound 52A] . Value?
-- reply 0.114

-- ask Given the entry CN1C(=O)c2c(O)c(=O)ccn2N2C(c3ccccc3)C(CCC(F)(F)F)CCC12 (single isomer, unassigned) [Compound 128A] , report its measured EC50.
-- reply 0.799

-- ask Consider the compound CC1(c2ccccc2)CCCC2N(CC(F)(F)F)C(=O)c3c(O)c(=O)ccn3N21 (single isomer, unassigned) [Compound 34A] and give its measured EC50.
-- reply 3.09

-- ask I have this compound here, CN1C(=O)c2c(O)c(=O)ccn2N2C(c3ccccc3)C(C3(C(F)(F)F)CC3)CCC12 (single isomer, unassigned) [Compound 108B] , and I need its recorded EC50.
-- reply 0.0094

-- ask Given the entry CN1C(=O)c2c(O)c(=O)ccn2N2C1CCCC21CCc2ccccc21 (single isomer, unassigned) [Compound 21B] , report its measured EC50.
-- reply 0.0026

-- ask # get_value(readout='EC50', item= Cc1ccnc(C2(C)CCCC3N(CC(F)(F)F)C(=O)c4c(O)c(=O)ccn4N32)c1 (single isomer, unassigned) [Compound 50B] )
-- reply 0.009

-- ask Could you share which EC50 value was measured for CN1C(=O)c2c(O)c(=O)ccn2N2C1CCC1(CC(F)(F)C1)C2c1ccccc1 (single isomer, unassigned) [Compound 74B] ?
-- reply 0.0157

-- ask Suppose we examine the compound CN1C(=O)c2c(O)c(=O)ccn2N2C(c3ccccc3F)C(CC(F)(F)F)CCC12 (single isomer, unassigned) [Compound 127B] ; what EC50 value has been reported?
-- reply 0.003

-- ask Could you tell me which EC50 is on file for CCC1(c2ccccc2)CCCC2N(C)C(=O)c3c(O)c(=O)ccn3N21 (single isomer, unassigned) [Compound 22D] ?
-- reply 0.011

-- ask Requested read-out: EC50. Entry: CN1C(=O)c2c(O)c(=O)ccn2N2C(c3ccccc3)C(CCC(F)(F)F)CCC12C (single isomer, unassigned) [Compound 78B]
-- reply 0.0029

-- ask # EC50 lookup, item CN1C(=O)c2c(O)c(=O)ccn2N2C1CCC2(C)c1ccccc1 (single isomer, unassigned) [Compound 61A]
-- reply 0.122

-- ask Consider the compound CN1C(=O)c2c(O)c(=O)ccn2N2C(c3ccccc3)C(c3cccc(F)c3F)CCC12 (single isomer, unassigned) [Compound 116B] and give its measured EC50.
-- reply 0.0069

-- ask Would you kindly share the measured EC50 for CN1C(=O)c2c(O)c(=O)ccn2N2C1CCC2(C)c1ccccc1Cl (single isomer, unassigned) [Compound 63B] ?
-- reply 0.16

* * *

- Tested on: FLU A (PR/8/34)
- PROCEDURE_SUMMARY: Flu A Neuraminidase Antiviral Assay
- Assay type: cell-based
MEASURE: EC50 (nM)
Give just the numeric value; nM need not be written.

-- ask Form field: reported EC50 of CN1C(=O)c2c(O)c(=O)ccn2N2C(c3ccccc3C3CC3)C(CC(F)(F)F)CCC12 (single isomer, unassigned) [Compound 107A]
-- reply 4800

-- ask Given C=CCC1CCC2N(C)C(=O)c3c(O)c(=O)ccn3N2C1c1ccccc1Cl (centres unmarked) [Compound 64B] , state its recorded EC50.
-- reply 28.4

-- ask Which EC50 reading was recorded for the compound CN1C(=O)c2c(O)c(=O)ccn2N2C(c3cc(F)ccc3OC(F)F)CCCC12 (single isomer, unassigned) [Compound 17B] ?
-- reply 103

-- ask May I ask what EC50 has been recorded for C=CCC1CCC2N(C)C(=O)c3c(O)c(=O)ccn3N2C1c1ccccc1Cl (centres unmarked) [Compound 64D] ?
-- reply 4.6

-- ask If you can, please state the reported EC50 value of Cc1ccccc1C1C(CC(F)(F)F)CCC2N(C)C(=O)c3c(O)c(=O)ccn3N12 (single isomer, unassigned) [Compound 120A] .
-- reply 2720

-- ask Please report the recorded EC50 for CN1C(=O)c2c(O)c(=O)ccn2N2C(c3c(F)cccc3F)C(CC(F)(F)F)CCC12 (single isomer, unassigned) [Compound 123D] .
-- reply 26.9

-- ask Sample Cc1cc(=O)c(O)c2n1N1C(c3ccccc3)C(CC(F)(F)F)CCC1N(C)C2=O (single isomer, unassigned) [Compound 132B] — what was its EC50?
-- reply 21.3

-- ask Endpoint output: EC50 of Cc1ccccc1C1C(CC(F)(F)F)CCC2(C)N(C)C(=O)c3c(O)c(=O)ccn3N12 (single isomer, unassigned) [Compound 87B] . Value?
-- reply 3.6

-- ask Quick check: EC50 of CC1CC2N(C)C(=O)c3c(O)c(=O)ccn3N2C(C)(c2ccccc2)C1 (single isomer, unassigned) [Compound 43D] ?
-- reply 7.8

-- ask Which EC50 is reported for this compound? CN1C(=O)c2c(O)c(=O)ccn2N2C1CCC(=O)C2(C)c1ccccc1 (centres unmarked) [Compound 138B]
-- reply 1720
